Let's look at some compounds and their measured pIC50.
- target.desc: HIV-1 Protease (Human immunodeficiency virus type 1 group M subtype B (isolate HXB2) (HIV-1), UniProt P04585)
- method: Enzymatic (FRET fluorometric) assay for determining the inhibition constant (Ki) of compounds targeting the HIV protease
- Type: biochemical
- run.conditions: read-out: IC50 ENZYME HIV-1 Protease
pIC50: −log10 of the molar value.

[
  {
    "structure.smiles.string": "COC(=O)N[C@@H](CC1CCCCC1)C(=O)NCCCC[C@@H](CO)N(CC(C)C)S(=O)(=O)c1ccc(N)cc1",
    "pIC50": 8.28
  },
  {
    "structure.smiles.string": "COC(=O)N[C@H](C(=O)NCCCC[C@H](CO)N(CC(C)C)S(=O)(=O)c1cccc2cccnc12)C(c1ccccc1)c1ccccc1",
    "pIC50": 8.59
  },
  {
    "structure.smiles.string": "CC(C)CN([C@H](CO)CCCCNC(=O)[C@H](CC1=C(Br)CCC=C1)NC(=O)N1CCOCC1)S(=O)(=O)c1ccc2c(c1)OCCO2",
    "pIC50": 8.44
  },
  {
    "structure.smiles.string": "Cc1ncccc1C(=O)N[C@@H](Cc1ccccc1Br)C(=O)NCCCC[C@@H](CO)N(CC(C)C)S(=O)(=O)c1ccc(N)cc1",
    "pIC50": 9.24
  },
  {
    "structure.smiles.string": "CC(C)CN([C@H](CO)CCCCNC(=O)[C@H](Cc1ccccc1Cl)NC(=O)c1ccncc1)S(=O)(=O)c1ccc(N)cc1",
    "pIC50": 8.42
  },
  {
    "structure.smiles.string": "CC(C)CN([C@H](CO)CCCCNC(=O)[C@H](Cc1ccc2ccccc2c1)NCc1ccccn1)S(=O)(=O)c1ccc(N)cc1",
    "pIC50": 8.23
  },
  {
    "structure.smiles.string": "Cc1ncccc1C(=O)N[C@@H](Cc1ccccc1Cl)C(=O)NCCCC[C@@H](CO)N(CC(C)C)S(=O)(=O)c1ccc(N)cc1",
    "pIC50": 8.67
  }
]

* * *

- System: HIV-1 viral strain NL4-3
- method: Anti-viral assay in vitro (MTT, infected MT-4 cells, six days)
- Format: cell-based
- run.conditions: Human immunodeficiency virus 1, NL43, MT4, 144 h, read-out: ANTI-HIV-EC50 VIRAL STRAIN NL4-3
- Description: Anti-Viral and Cytotoxicity Assays In Vitro • To evaluate the EC50 of our compounds, various drug concentrations are incubated with the infected cell for six days and then the metabolic activity of the cells is monitored by the MTT assay. […]
Just a reminder that ties go to condition not met: only EC50 strictly below 200 nM counts as condition met.

[
  {
    "compound": "Cc1c(O)cccc1C(=O)N[C@@H](Cc1ccccc1Br)C(=O)NCCCC[C@@H](CO)N(CC(C)C)S(=O)(=O)c1ccc(N)cc1 [EX 18]",
    "group.label": "condition met"
  },
  {
    "compound": "Cc1ccccc1C[C@H](NC(=O)c1ccncc1)C(=O)NCCCC[C@@H](CO)N(CC(C)C)S(=O)(=O)c1ccc(N)cc1 [EX 22]",
    "group.label": "condition met"
  },
  {
    "compound": "CC(C)CN([C@H](CO)CCCCNC(=O)[C@H](Cc1ccccc1Br)NC(=O)N1CCOCC1)S(=O)(=O)c1ccc2c(c1)CCO2 [EX 17]",
    "group.label": "condition not met"
  },
  {
    "compound": "CC(C)CN([C@H](CO)CCCCNC(=O)[C@@H](NC(=O)NCc1ccncc1)C(c1ccccc1)c1ccccc1)S(=O)(=O)c1ccc(N)cc1 [EX 62]",
    "group.label": "condition met"
  },
  {
    "compound": "Cc1ncccc1C(=O)N[C@@H](Cc1ccccc1Br)C(=O)NCCCC[C@@H](CO)N(CC(C)C)S(=O)(=O)c1ccc(N)cc1 [EX. 39]",
    "group.label": "condition met"
  },
  {
    "compound": "Cc1ccccc1C[C@H](NC(=O)c1cccnc1)C(=O)NCCCC[C@@H](CO)N(CC(C)C)S(=O)(=O)c1ccc(N)cc1 [EX 20]",
    "group.label": "condition met"
  }
]

Provenance of the data: patent US8742158B2
